# test.method.notes: Cmax in rat at 5 mg/kg, po
# Type: ADME, organism-based
# Parameters: dose 5 mg/kg, route oral
# condition.description: in vivo
outcome.measure: Cmax

Input: State its Cmax: `COc1ccc(CNC(=O)c2cc(-c3cncc(C)c3)ncc2-c2nccs2)nc1OC`
Output: 2100 nM

* * *

# test.method.notes: AUC in dog at 3 mg/kg, po
# Type: ADME, organism-based, Canis lupus familiaris
# Parameters: dose 3 mg/kg, route oral
# condition.description: plasma
outcome.measure: AUC (µM·h)
Give the value, in units of µM·h, as a plain number.

Input: State its AUC: `COc1ccc(CNC(=O)c2cc(-c3cncc(C)c3)ncc2-c2nccs2)nc1OC`
Output: 9
